Recorded parasite growth remaining, % of DMSO control (lower = more inhibition), one value per entry.
PROTOCOL_SUMMARY: qHTS profiling of the MIPE4 collection as inhibitors of Plasmodium falciparum (DD2) proliferation (AID 743345)
CONDITION_CONTEXT: P. falciparum Dd2 in erythrocytes, SYBR Green DNA, 72 h; at 28.5 µM (top of the series) unless noted
ASSAY_METRIC: parasite growth remaining, % of DMSO control (lower = more inhibition) (%)

COMPOUND: COc1cc2c(cc1OC)C1CC(=O)C(CC(C)C)CN1CC2 (configuration not stated)
RESULT_UNITS: %
MEASURED_RESULT: 7.77

COMPOUND: N[C@@H](Cc1cc(I)c(Oc2cc(I)c(O)c(I)c2)c(I)c1)C(=O)O
RESULT_UNITS: %
MEASURED_RESULT: 89.9

COMPOUND: N=C(N=C(N)N)N1CCOCC1
RESULT_UNITS: %
MEASURED_RESULT: 96.2

COMPOUND: Cc1cc2cc3c(C)cc(=O)oc3c(C)c2o1
RESULT_UNITS: %
MEASURED_RESULT: 95.8

COMPOUND: O=C(c1ccccc1)c1ccc2n1CCC2C(=O)O (configuration not stated)
RESULT_UNITS: %
MEASURED_RESULT: 107

COMPOUND: O=Nc1c(-c2c(O)[nH]c3cc(Br)ccc23)[nH]c2ccccc12
RESULT_UNITS: %
MEASURED_RESULT: 6.11

COMPOUND: CN(C)[C@@H](CCOc1cccc2ccccc12)c1ccccc1
RESULT_UNITS: %
MEASURED_RESULT: 14.4

COMPOUND: NS(=O)(=O)c1cc(C(=O)O)c(NCc2ccco2)cc1Cl
RESULT_UNITS: %
MEASURED_RESULT: 103

COMPOUND: CCN(CC)CCOc1ccc(Cc2ccccc2)cc1
RESULT_UNITS: %
MEASURED_RESULT: 74.1

COMPOUND: Cc1nc(Nc2ncc(C(=O)Nc3c(C)cccc3Cl)s2)cc(N2CCN(CCO)CC2)n1
RESULT_UNITS: %
MEASURED_RESULT: 65.3

COMPOUND: CCOC(=O)C1=C(O)C(=O)N(Cc2ccccc2)C1
RESULT_UNITS: %
MEASURED_RESULT: 104

COMPOUND: O=C(NC(Cc1cc(=O)[nH]c2ccccc12)C(=O)O)c1ccc(Cl)cc1 (configuration not stated)
RESULT_UNITS: %
MEASURED_RESULT: 96.8

COMPOUND: CC[C@]1(O)C[C@H]2CN(CCc3c([nH]c4ccccc34)[C@@](C(=O)OC)(c3cc4c(cc3OC)N(C=O)[C@H]3[C@@](O)(C(=O)OC)[C@H](OC(C)=O)[C@]5(CC)C=CCN6CC[C@]43[C@@H]65)C2)C1
RESULT_UNITS: %
MEASURED_RESULT: 18

COMPOUND: Cc1ccc(S(=O)(=O)NC(=O)NN2CC3CCCC3C2)cc1 (configuration not stated)
RESULT_UNITS: %
MEASURED_RESULT: 13.9

COMPOUND: CCN(CCO)CCCC(C)Nc1ccnc2cc(Cl)ccc12 (configuration not stated)
RESULT_UNITS: %
MEASURED_RESULT: 16.9

COMPOUND: CN(C)C(=O)COC(=O)Cc1ccc(OC(=O)c2ccc(N=C(N)N)cc2)cc1
RESULT_UNITS: %
MEASURED_RESULT: 93

COMPOUND: Cc1cc(Cl)ccc1OCCCC(=O)NO
RESULT_UNITS: %
MEASURED_RESULT: 72.9

COMPOUND: C[C@H](Cn1cnc2c(N)ncnc21)OCP(=O)(O)O
RESULT_UNITS: %
MEASURED_RESULT: 112

COMPOUND: CC1(C)C(=O)N(CCN2CCC(C(=O)c3ccc(F)cc3)CC2)c2ccccc21
RESULT_UNITS: %
MEASURED_RESULT: 15.4

COMPOUND: C[C@@H](N)C1CCC(C(=O)Nc2ccncc2)CC1 (some centres not stated)
RESULT_UNITS: %
MEASURED_RESULT: 91.5

COMPOUND: Cc1ccc(NC(=O)c2ccc(CN3CCN(C)CC3)cc2)cc1Nc1nccc(-c2cccnc2)n1
RESULT_UNITS: %
MEASURED_RESULT: 10.8

COMPOUND: CCN(CC)CCOc1ccc(Nc2ncc3cc(-c4c(Cl)cccc4Cl)c(=O)n(C)c3n2)cc1
RESULT_UNITS: %
MEASURED_RESULT: 8.57

###

System: WaGa
PROTOCOL_SUMMARY: qHTS assay to identify novel small-molecules to repurpose for Merkel cell carcinoma treatment (AID 1296009); further: nearly all actives have a fitted effect of over 60% in size
CONDITION_CONTEXT: MCC and control cell lines, CellTiter-Glo viability, 72 h; series mostly up to 46 µM
Results filed as inconclusive are left out. Activity calls are given as the source filed them. Calls follow the shape of the dose curve; as a rule, active = well fitted inhibition curve with a large enough effect; inconclusive = small, poorly fitted or top-dose-only effect; inactive = flat fitted curve, though single readings scatter.
Classes used: 1.0 for active, 0.0 for inactive

COMPOUND: CC1(C)C(=O)N(CCN2CCC(C(=O)c3ccc(F)cc3)CC2)c2ccccc21
CLASS: 0.0
//
COMPOUND: C=CCc1cc(OC)c(O)c(C(=O)NCCO)c1
CLASS: 0.0
//
COMPOUND: O=C(NC(Cc1cc(=O)[nH]c2ccccc12)C(=O)O)c1ccc(Cl)cc1 (configuration not stated)
CLASS: 0.0
//
COMPOUND: Oc1ccc(OCc2ccccc2)cc1
CLASS: 0.0
//
COMPOUND: N[C@@H](Cc1cc(I)c(Oc2cc(I)c(O)c(I)c2)c(I)c1)C(=O)O
CLASS: 0.0
//
COMPOUND: CCOc1cc(CC(=O)N[C@@H](CC(C)C)c2ccccc2N2CCCCC2)ccc1C(=O)O
CLASS: 0.0
//
COMPOUND: Cc1cccc(CN2CCN(C(c3ccccc3)c3ccc(Cl)cc3)CC2)c1 (configuration not stated)
CLASS: 0.0
//
COMPOUND: Nc1cc(C(Cl)=C(Cl)Cl)c(S(N)(=O)=O)cc1S(N)(=O)=O
CLASS: 0.0
//
COMPOUND: O=C1CCc2ccc(OCCCCN3CCN(c4cccc(Cl)c4Cl)CC3)cc2N1
CLASS: 0.0
//
COMPOUND: Clc1ccc(C(Cn2ccnc2)OCc2ccsc2Cl)c(Cl)c1 (configuration not stated)
CLASS: 0.0
//
COMPOUND: Cc1cc(=O)c2c(O)c3c(O)cc(=O)c4c3c3c(cc(O)c1c23)C(C)(C)C=4O
CLASS: 0.0
//
COMPOUND: COC(=O)C1=C(C)NC(C)=C(C(=O)OC(C)C)C1c1cccc2nonc12 (configuration not stated)
CLASS: 0.0
//
COMPOUND: Nc1nc(OCc2ccccc2)c2[nH]cnc2n1
CLASS: 0.0
//
COMPOUND: c1cnc2cc3c(cc2n1)C1CNCC3C1
CLASS: 0.0
//
COMPOUND: CN(c1nccc(=O)[nH]1)C1CCN(c2nc3ccccc3n2Cc2ccc(F)cc2)CC1
CLASS: 0.0
//
COMPOUND: COc1cc2c(N3CCN(C(=O)Nc4ccc(OC(C)C)cc4)CC3)ncnc2cc1OCCCN1CCCCC1
CLASS: 0.0
//
COMPOUND: CCN(CC)CCOc1ccc(Nc2ncc3cc(-c4c(Cl)cccc4Cl)c(=O)n(C)c3n2)cc1
CLASS: 1.0
//
COMPOUND: CN(C)CCc1c[nH]c2ccc(Cn3cncn3)cc12
CLASS: 0.0
//
COMPOUND: Cc1c(OCC(F)(F)F)ccnc1CS(=O)c1nc2ccccc2[nH]1 (configuration not stated)
CLASS: 0.0
//
COMPOUND: O=P(O)(O)C(O)(Cn1ccnc1)P(=O)(O)O
CLASS: 0.0
//
COMPOUND: Nc1nc(Cl)nc2c1ncn2[C@H]1C[C@H](O)[C@@H](CO)O1
CLASS: 1.0
//
COMPOUND: C[C@H](Cc1ccc(O)c(O)c1)[C@@H](C)Cc1ccc(O)c(O)c1
CLASS: 1.0

###

Test system: astro
PROTOCOL_SUMMARY: Drug repurposing screens with cells derived from glioblastoma tumor samples (AID 1345199); further: nearly all actives have a fitted effect of over 40% in size
CONDITION_CONTEXT: viability, ATP luminescence, 48 h; series mostly up to 45.9 µM
Inconclusive results are not listed. The source made the active and inactive calls. Calls come from the whole dose curve; as a rule, active = well fitted inhibition curve with a large enough effect; inconclusive = small, poorly fitted or top-dose-only effect; inactive = flat fitted curve, though single readings scatter. Non-standard residues stand in square brackets, D forms with d. Residues, ends and D or L forms follow the SMILES beside them. *: point of attachment. Sta = CC(C)C[C@H](N)[C@@H](O)CC(=O)O; Isovaleryl = CC(C)CC(=O)*
Labels: active, inactive

MOLECULE: CN(C)c1ccc(O)c2c1C[C@H]1C[C@H]3[C@H](N(C)C)C(=O)C(C(N)=O)=C(O)[C@@]3(O)C(=O)C1=C2O
CLASS: inactive

MOLECULE: O=C(NOCC1CC1)c1ccc(F)c(F)c1Nc1ccc(I)cc1Cl
CLASS: active

MOLECULE: Cn1c(NCCN(CCO)CCCc2ccc([N+](=O)[O-])cc2)cc(=O)n(C)c1=O
CLASS: inactive

MOLECULE: S=c1nc[nH]c2nc[nH]c12
CLASS: inactive

MOLECULE: C[Se]CCC(N)C(=O)O (centres undefined)
CLASS: inactive

MOLECULE: O=C(NCCO[N+](=O)[O-])c1cccnc1
CLASS: inactive

MOLECULE: CNC[C@@H](O)[C@@H](O)[C@H](O)[C@H](O)CO
CLASS: inactive

MOLECULE: CC(C)CC(=O)N[C@H](C(=O)N[C@H](C(=O)N[C@@H](CC(C)C)[C@@H](O)CC(=O)N[C@@H](C)C(=O)N[C@@H](CC(C)C)[C@@H](O)CC(=O)O)C(C)C)C(C)C (Isovaleryl-VV[Sta]A[Sta]-OH)
CLASS: inactive

MOLECULE: CN(C)c1ccc2nc3ccc(=[N+](C)C)cc-3sc2c1
CLASS: active
